Data credit: ChEMBL document CHEMBL4400582

Test summary: AUC (0 to 24 hrs) in cynomolgus monkey at 10 mg/kg, po
Assay type: ADME, organism-based, Macaca fascicularis
Parameters: time < 24 hr, dose 10 mg/kg, route oral
Conditions used: in vivo
Assay endpoint: AUC(0-t) at 24 h

[[record]]
structure_smiles = "CNc1cc(Nc2cccn(-c3ccccn3)c2=O)nn2c(C(=O)N[C@@H]3C[C@@H]3F)cnc12"
experimental_result = "11 µM·h"


* * *

log10(IC50) reference
System name: Non-receptor tyrosine-protein kinase TYK2 (Homo sapiens, UniProt P29597)
Sequence (P29597 whole entry, the tested form may be a part): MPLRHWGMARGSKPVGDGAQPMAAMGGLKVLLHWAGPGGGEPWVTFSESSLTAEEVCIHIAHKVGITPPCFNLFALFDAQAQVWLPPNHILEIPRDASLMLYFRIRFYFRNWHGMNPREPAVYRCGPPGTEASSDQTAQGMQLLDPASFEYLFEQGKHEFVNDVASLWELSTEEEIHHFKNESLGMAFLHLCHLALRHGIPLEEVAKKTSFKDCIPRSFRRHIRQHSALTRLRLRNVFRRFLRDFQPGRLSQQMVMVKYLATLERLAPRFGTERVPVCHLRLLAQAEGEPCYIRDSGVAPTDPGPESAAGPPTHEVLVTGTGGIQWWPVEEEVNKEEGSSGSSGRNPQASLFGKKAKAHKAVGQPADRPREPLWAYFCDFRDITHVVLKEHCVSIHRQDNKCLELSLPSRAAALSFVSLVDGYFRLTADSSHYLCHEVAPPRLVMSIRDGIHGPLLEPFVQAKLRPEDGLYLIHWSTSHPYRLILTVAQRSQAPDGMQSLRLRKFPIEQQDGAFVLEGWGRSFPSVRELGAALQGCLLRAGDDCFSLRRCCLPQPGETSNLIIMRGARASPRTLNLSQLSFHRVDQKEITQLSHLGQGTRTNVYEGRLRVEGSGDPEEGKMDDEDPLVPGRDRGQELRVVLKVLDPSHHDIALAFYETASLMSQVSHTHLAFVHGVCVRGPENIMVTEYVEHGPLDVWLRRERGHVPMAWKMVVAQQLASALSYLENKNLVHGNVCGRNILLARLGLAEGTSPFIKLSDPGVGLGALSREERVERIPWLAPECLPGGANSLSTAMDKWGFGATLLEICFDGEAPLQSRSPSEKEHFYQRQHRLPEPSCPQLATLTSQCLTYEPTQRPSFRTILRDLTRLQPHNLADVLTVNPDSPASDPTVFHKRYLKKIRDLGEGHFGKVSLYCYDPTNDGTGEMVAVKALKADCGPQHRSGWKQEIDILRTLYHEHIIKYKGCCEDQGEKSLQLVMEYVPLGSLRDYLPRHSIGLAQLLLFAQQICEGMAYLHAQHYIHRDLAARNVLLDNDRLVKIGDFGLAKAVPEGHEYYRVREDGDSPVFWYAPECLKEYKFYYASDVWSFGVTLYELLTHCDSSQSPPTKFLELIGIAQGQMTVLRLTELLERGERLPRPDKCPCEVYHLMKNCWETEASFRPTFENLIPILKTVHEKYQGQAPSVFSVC
Test summary: Inhibition of TYK2 JH2 domain in human whole blood assessed as decrease in IFNalpha/IL2-induced STAT phosphorylation preincubated for 1 hr followed by IFNalpha/IL2 stimulation and measured after 15 mins by fluorescence assay
Type: tissue-based
Assay endpoint: log10(IC50) (log10 of the value in nM)

[[record]]
structure_smiles = "CNc1cc(Nc2cccn(-c3ccccn3)c2=O)nn2c(C(=O)NC(C)C)cnc12"
assay_endpoint = "log10(IC50)"
experimental_result = 2.88

[[record]]
structure_smiles = "CNc1cc(Nc2cccn(-c3ccc(C)nn3)c2=O)nn2c(C(=O)N[C@@H]3C[C@@H]3F)cnc12"
assay_endpoint = "log10(IC50)"
experimental_result = 1.80

[[record]]
structure_smiles = "CNc1cc(Nc2cccn(-c3cccc(F)n3)c2=O)nn2c(C(=O)N[C@@H]3C[C@@H]3F)cnc12"
assay_endpoint = "log10(IC50)"
experimental_result = 2.13

[[record]]
structure_smiles = "CNc1cc(Nc2cccn(-c3ncc(F)cn3)c2=O)nn2c(C(=O)NC3CC3)cnc12"
assay_endpoint = "log10(IC50)"
experimental_result = 2.67

[[record]]
structure_smiles = "CNc1cc(Nc2cccn(C3CC3)c2=O)nn2c(C(=O)NC3CC3)cnc12"
assay_endpoint = "log10(IC50)"
experimental_result = 2.91

